These measurements were taken from PubChem BioAssay AID330.

Tested on: P388 leukemia ip, CD2F1 mice, survival T/C
Test: NCI In Vivo Anticancer Drug Screen. Data for tumor model P388 Leukemia (intraperitoneal) in CD2F1 (CDF1) mice
Conditions: endpoint: median survival time; dose: 100.0 mg/kg/injection; schedule: Q04DX003 (ip); vehicle: saline with Tween-80
Toxic doses and inconclusive results are not listed. Rule for the calls: active = survival T/C of 150% or more; inactive = T/C below 125% in these data.
Hello, when you answer, please use one of the following outcomes: active, inactive

- CC(C)CCNc1ncnc2c1cnn2C: inactive

Dear colleague, could you share the recorded outcome for CCCCC(CC)COC(C)=O (centres undefined) when you have a moment?
inactive

# repeat for CCCCC(CC)C(=O)N1CCOCC1 (centres undefined)
inactive

# repeat for O=C(COc1ccc(Cl)cc1Cl)NC(O)C(Cl)(Cl)Cl (centres undefined)
inactive

----------
System: P388 leukemia ip, CD2F1 mice, survival T/C
Assay: NCI In Vivo Anticancer Drug Screen. Data for tumor model P388 Leukemia (intraperitoneal) in CD2F1 (CDF1) mice
Details: endpoint: median survival time; dose: 12.5 mg/kg/injection; schedule: Q01DX005 (ip); vehicle: Klucel (hydroxypropylcellulose) (HPC); higher = longer survival
Inconclusive results and toxic doses are left out.
Listed here are compounds together with their documented T/C.

Hi! What's the reported T/C for CC1=CC(=O)C2(OC3OC(C)C(O)C(O)C3O)C=COC(OC3OC(CO)C(O)C(O)C3O)C12 (configuration not stated) on P388 leukemia ip, CD2F1 mice, survival T/C?
98 % of control

----------
Tested on: P388 leukemia ip, CD2F1 mice, survival T/C
Assay: NCI In Vivo Anticancer Drug Screen. Data for tumor model P388 Leukemia (intraperitoneal) in CD2F1 (CDF1) mice
Conditions: endpoint: median survival time; dose: 100.0 mg/kg/injection; schedule: Q01DX009 (ip); vehicle: water
Toxic doses and inconclusive results are not listed. The calls were made as follows: active = survival T/C of 150% or more; inactive = T/C below 125% in these data.
Hello, when you answer, please use one of the following outcomes: 1 for active, -1 for inactive

Answered cases to consult:
• NCC1OC(n2cnc3c(N)ncnc32)C(O)C1O (configuration not stated) = -1
• CC(=O)NC1C(=O)OC(C(O)CO)C1O (configuration not stated) = -1
• Cc1cc(NN=O)nc(C)c1C#N = 1
• Nc1ncnc2c1c1c(=S)nc[nH]c1n2C1OC(CO)C(O)C1O (configuration not stated) = 1
• O=NNc1ncccn1 = -1
• CCCCOc1ccc(NN=O)cn1 = -1

Please find the next compound below.
Dear colleague, could you share the recorded outcome for Cc1ccc(S(=O)(=O)CC2OCC3OC(C)(C)OC23)cc1 (configuration not stated) when you have a moment?
-1

----------
Test system: P388 leukemia ip, CD2F1 mice, survival T/C
Assay: NCI In Vivo Anticancer Drug Screen. Data for tumor model P388 Leukemia (intraperitoneal) in CD2F1 (CDF1) mice
Conditions: endpoint: median survival time; dose: 100.0 mg/kg/injection; schedule: Q01DX005 (ip); vehicle: Klucel (hydroxypropylcellulose) (HPC); higher = longer survival
Inconclusive results and toxic doses are left out. Square brackets hold non-standard residues; d marks the D form. Peptide text beside a SMILES is read from it. * marks the point of attachment. Cbz = O=C(OCc1ccccc1)*; Nva = CCC[CH](N)C(=O)O
Recorded endpoint: T/C

- CC1(C)CC(N2CCOCC2)=CC(=S)N1: 103 % of control
- COc1ccc2ccc3oc([N+](=O)[O-])cc3c2c1: 119 % of control
- NC(N)=NCCCC(N)C(=O)NC(CCCN=C(N)N)C(=O)O (stereo not drawn) (H-Arg-Arg-OH; configuration not given here): 100 % of control
- CC/C=C/C(O)C(O)C1=C(C)C(=O)C2(O1)C(=O)NC(OC)(C(=O)c1ccccc1)C2O (stereo unspecified): 96 % of control
- CCOC(=O)CNC(=O)C(CSSCC(NC(=O)OCc1ccccc1)C(=O)O)NC(=O)OCc1ccccc1 (stereo unspecified): 97 % of control

Hi! What's the reported T/C for Cn1c2c(c(=O)c3c4[nH]c5c(c(=O)c4ccc31)CCCC5)CCCC2 on P388 leukemia ip, CD2F1 mice, survival T/C?
101 % of control

# repeat for O=c1c2ccccc2n(-c2ccccc2)c2ccccc12
100 % of control

# repeat for COc1c(N)c2c(c([N+](=O)[O-])c1OC)C(=O)OC2
93 % of control

# repeat for CCCCCCCC(=O)NN(Cn1c(=S)sc2ccccc21)Cn1c(=S)sc2ccccc21
88 % of control

# repeat for CNC(=O)CCC(NS(=O)(=O)c1ccccc1)C(=O)O (stereo unspecified)
96 % of control

# repeat for COc1cc(NC(=O)CNC(=O)CNC(=O)C(N)CC(C)C)cc2ccccc12 (stereo unspecified)
96 % of control

# repeat for O=c1c(N(CCO)CCO)cn(Cc2ccccc2)c(=O)n1Cc1ccccc1
103 % of control

# repeat for CSc1nc(C#N)c(/N=C\N(C)C)s1
99 % of control

# repeat for COc1ccc2c(c1OC)C(=O)OC2C(=O)NCCc1ccc2c(c1)OCO2 (stereo unspecified)
92 % of control

# repeat for CC1CCC2(OC1)OC1CC3C4CC=C5CC(O)CCC5(C)C4CCC3(C)C1C2C (stereo unspecified)
89 % of control

# repeat for O=C1CCC/C(c2ccccc2)=N\N=C/1c1ccccc1
106 % of control

# repeat for COc1cc(Br)c(C(C)(C)C#N)cc1OC
101 % of control

# repeat for CCCC(NC(=O)OCc1ccccc1)C(=O)NC(CCSC)C(N)=O (stereo unspecified) (Cbz-[Nva]-Met-NH2; configuration not given here)
97 % of control

# repeat for O=C1C2CC3OC3CC2C(=O)N1CCCCCCN1C(=O)C2CC3OC3CC2C1=O (stereo unspecified)
90 % of control

# repeat for CC12CCC3c4ccc(O)cc4CCC3C1CCC2(O)CN1CCCCC1 (stereo unspecified)
91 % of control

# repeat for COc1ccc2nc(-c3ccc(Cl)cc3)cc(C(=O)O)c2c1
100 % of control
